Property: pKi; scope: individual compounds
molecular target: human neprilysin (EC 3.4.24.11; NEP) (Homo sapiens (Human)); experiment: In vitro enzyme inhibition assay at human NEP (fluorogenic peptide substrate); details: pKi values at human NEP, recombinant human NEP
pKi: −log10 of the molar value.

Previously resolved entries follow.
CC(=O)Nc1cccc(-c2cc(C(=O)N[C@H](Cc3ccc(-c4ccccc4)cc3)CC(O)C(=O)O)n[nH]2)c1 (stereo partly shown): 8.00 to 8.90
O=C(N[C@H](Cc1ccc(-c2ccccc2)cc1)C[C@@H](O)C(=O)O)c1cc(-c2ccccn2)n[nH]1: ≥ 9.00

Entry `CC(=O)OCOn1nnc2ccc(C(=O)N[C@H](Cc3ccc(-c4cc(Cl)ccc4Cl)cc3)C[C@@H](O)C(=O)O)cc21` — recorded pKi = ≥ 9.00

Entry CCOC(=O)Nc1cc(C(=O)N[C@H](Cc2ccc(-c3ccccc3)cc2)CC(O)C(=O)O)[nH]n1 (stereo partly shown) — recorded pKi = 7.00 to 7.90

Entry `O=C(N[C@H](Cc1ccc(-c2ccccc2)cc1)C[C@@H](O)C(=O)O)c1cc2n(n1)CCCOc1ccccc1-2` — recorded pKi = 8.00 to 8.90

Entry O=C(N[C@H](Cc1ccc(-c2ccccc2)cc1)CC(O)C(=O)O)c1cc(F)c2[nH]nnc2c1 (stereo partly shown) — recorded pKi = 8.00 to 8.90

Entry `O=C(N[C@H](Cc1ccc(-c2ccccc2)cc1)C[C@@H](O)C(=O)O)c1nc(Cl)n[nH]1` — recorded pKi = 8.00 to 8.90

* * *

Property: Ki; scope: individual compounds
Target: human neprilysin (EC 3.4.24.11; NEP) (Homo sapiens (Human), UniProt P08473)
Sequence (P08473 52-750): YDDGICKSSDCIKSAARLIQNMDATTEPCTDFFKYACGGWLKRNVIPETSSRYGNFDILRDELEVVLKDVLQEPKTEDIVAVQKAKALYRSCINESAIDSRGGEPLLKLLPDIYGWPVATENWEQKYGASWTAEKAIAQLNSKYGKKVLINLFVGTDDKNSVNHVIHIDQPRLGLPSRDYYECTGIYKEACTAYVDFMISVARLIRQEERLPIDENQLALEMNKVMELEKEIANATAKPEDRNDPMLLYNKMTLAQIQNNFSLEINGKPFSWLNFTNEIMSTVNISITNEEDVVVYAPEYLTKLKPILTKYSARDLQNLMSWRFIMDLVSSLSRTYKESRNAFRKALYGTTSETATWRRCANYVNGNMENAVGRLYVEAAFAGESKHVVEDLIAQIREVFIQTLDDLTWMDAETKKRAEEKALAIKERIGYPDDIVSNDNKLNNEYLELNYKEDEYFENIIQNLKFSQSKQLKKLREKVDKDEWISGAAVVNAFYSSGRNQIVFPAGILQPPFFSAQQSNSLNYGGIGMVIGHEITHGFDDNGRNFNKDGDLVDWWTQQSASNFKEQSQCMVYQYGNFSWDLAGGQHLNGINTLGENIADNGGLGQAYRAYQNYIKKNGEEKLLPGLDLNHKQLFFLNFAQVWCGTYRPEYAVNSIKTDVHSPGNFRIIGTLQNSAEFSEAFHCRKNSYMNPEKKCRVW
Assay: In vitro enzyme inhibition assay at human NEP (fluorogenic peptide substrate)
Conditions: pKi values at human NEP, recombinant human NEP
Experimental: In Vitro Assays for the Quantitation of Inhibitor Potencies at Human and Rat NEP, and Human ACE The inhibitory activities of compounds at human and rat neprilysin (EC 3.4.24.11; NEP) and human angiotensin converting enzyme (ACE) were determined using in vitro assays as described below. […] Plates were read on a fluorometer with excitation and emission wavelengths set to 320 nm and 405 nm, respectively. […]

Previously resolved entries follow.
O=C(O)c1ccc(C(=O)N[C@H](Cc2ccc(-c3ccccc3)cc2)CC(O)C(=O)O)o1 (stereo partly shown): 1.26 to 10 nM
COCC(=O)Nc1cc(C(=O)N[C@H](Cc2ccc(-c3ccccc3)cc2)CC(O)C(=O)O)[nH]n1 (stereo partly shown): 12.6 to 100 nM
O=C(N[C@H](Cc1ccc(-c2ccccc2)cc1)CC(O)C(=O)O)c1cc(-c2ccccc2)n[nH]1 (stereo partly shown): 1.26 to 10 nM
O=C(N[C@H](Cc1ccc(-c2ccccc2)cc1)CC(O)C(=O)O)c1cc(-c2ccccc2Cl)[nH]n1 (stereo partly shown): 1.26 to 10 nM
O=C(N[C@H](Cc1ccc(-c2ccccc2)cc1)CC(O)C(=O)O)c1cn[nH]c1 (stereo partly shown): 12.6 to 100 nM
O=C(N[C@H](Cc1ccc(-c2ccccc2)cc1)C[C@@H](O)C(=O)O)c1cc(-c2ccc(Cl)cc2)on1: 1.26 to 10 nM
O=C(N[C@H](Cc1ccc(-c2ccccc2)cc1)C[C@@H](O)C(=O)O)c1nc(-c2ccccc2Cl)no1: 1.26 to 10 nM
O=C(O)c1ccc(C(=O)N[C@H](Cc2ccc(-c3ccccc3)cc2)CC(O)C(=O)O)nc1 (stereo partly shown): 12.6 to 100 nM
COc1ccccc1C(=O)Nc1nc(C(=O)N[C@H](Cc2ccc(-c3ccccc3)cc2)C[C@@H](O)C(=O)O)cs1: 12.6 to 100 nM
O=C(N[C@H](Cc1ccc(-c2ccccc2)cc1)C[C@@H](O)C(=O)O)c1cc(CN2CCOCC2)on1: 12.6 to 100 nM

Entry `COCCN(C)C(=O)c1cc(C(=O)N[C@H](Cc2ccc(-c3ccccc3)cc2)C[C@H](O)C(=O)O)[nH]n1` — recorded Ki = 1.26 to 10 nM

Entry `CC(C)(c1ccc(-c2ccccc2)cc1)[C@H](C[C@@H](O)C(=O)O)NC(=O)c1c[nH]nn1` — recorded Ki = 12.6 to 100 nM

Entry CCC(=O)Nc1cc(C(=O)N[C@H](Cc2ccc(-c3ccccc3)cc2)CC(O)C(=O)O)[nH]n1 (stereo partly shown) — recorded Ki = 12.6 to 100 nM

Entry Cc1cc(C(=O)N[C@H](Cc2ccc(-c3ccccc3)cc2)CC(O)C(=O)O)cc2[nH]nnc12 (stereo partly shown) — recorded Ki = 1.26 to 10 nM

Entry O=C(N[C@H](Cc1ccc(-c2ccccc2)cc1)CC(O)C(=O)O)c1cc(C(=O)O)n(Cc2ccc(Cl)c(OC(F)(F)F)c2)n1 (stereo partly shown) — recorded Ki = 12.6 to 100 nM

Entry `O=C(N[C@H](Cc1ccc(-c2ccccc2)cc1)C[C@@H](O)C(=O)O)c1cc(-c2ccncc2)[nH]n1` — recorded Ki = 1.26 to 10 nM

Entry `O=C(N[C@H](Cc1ccc(-c2cccc(Cl)c2)cc1)C[C@@H](O)C(=O)O)c1cn(O)nn1` — recorded Ki = ≤ 1 nM

Entry O=C(N[C@H](Cc1ccc(-c2ccccc2)cc1)CC(O)C(=O)O)c1cc(C(=O)O)n(Cc2ccc(F)c(Cl)c2)n1 (stereo partly shown) — recorded Ki = 1.26 to 10 nM

Entry Nc1cc(C(=O)N[C@H](Cc2ccc(-c3ccccc3)cc2)CC(O)C(=O)O)n[nH]1 (stereo partly shown) — recorded Ki = 12.6 to 100 nM

Entry O=C(N[C@H](Cc1ccc(-c2ccccc2)cc1)CC(O)C(=O)O)c1cc(-c2ccc3ccccc3c2)[nH]n1 (stereo partly shown) — recorded Ki = 1.26 to 10 nM

Entry `CC(C)CN(C)C(=O)c1cc(C(=O)N[C@H](Cc2ccc(-c3ccccc3)cc2)C[C@H](O)C(=O)O)[nH]n1` — recorded Ki = 12.6 to 100 nM

Entry `O=C(N[C@H](Cc1ccc(-c2ccccc2)cc1)C[C@@H](O)C(=O)O)c1cc(CO)[nH]n1` — recorded Ki = 1.26 to 10 nM

Entry COc1ccccc1C(=O)Nc1cc(C(=O)N[C@H](Cc2ccc(-c3ccccc3)cc2)CC(O)C(=O)O)[nH]n1 (stereo partly shown) — recorded Ki = 1.26 to 10 nM

Entry `O=C(N[C@H](Cc1ccc(-c2ccccc2)cc1)C[C@@H](O)C(=O)O)c1cnn[nH]1` — recorded Ki = 1.26 to 10 nM

Entry O=C(N[C@H](Cc1ccc(-c2ccccc2)cc1)CC(O)C(=O)O)c1nnc(-c2ccccn2)[nH]1 (stereo partly shown) — recorded Ki = 1.26 to 10 nM

Entry `COc1cccc(-c2cc(C(=O)N[C@H](Cc3ccc(-c4ccccc4)cc3)C[C@@H](O)C(=O)O)no2)c1` — recorded Ki = 1.26 to 10 nM

Entry `O=C(N[C@H](Cc1ccc(-c2ccccc2)cc1)C[C@@H](O)C(=O)O)c1cnc(-c2ccccc2)o1` — recorded Ki = 1.26 to 10 nM

Entry `O=C(N[C@H](Cc1ccc(-c2ccccc2)cc1)C[C@@H](O)C(=O)O)c1cc2n(n1)C[C@@H](O)COc1ccccc1-2` — recorded Ki = 12.6 to 100 nM
